B1: MGC27345 (parent)
chain: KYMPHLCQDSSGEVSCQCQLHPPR

Variants of: B1
Test: protein stability index of a GFP-peptide fusion (GPS, HEK-293T) (PSI 1-6); higher = more stable;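 further: lentivirally expressed fusions sorted by FACS into six bins by GFP to DsRed ratio, PSI derived from sequencing read proportions per bin multiplied by bin number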
Settings: c terminus: a fixed tail appended
Label rule, in plain words: protein stability index of 2 and up is class 1, under 2 is class 0.

L6A = class 0

Then there is this variant:
Query :: Reported protein stability index reaches at least 2 for S10I ?
Result :: class 1

Sourced from the supplement of paper PMC10567573
